All figures here come from paper PMC7125863.

# test name: in vitro
# condition: human
assay readout: CC50 (µM)
One number for each entry, in µM.

Worked cases, CC50 given:
molecule | units text | CC50
O=c1ccn(C/C=C/c2ccccc2)c(=O)n1Cc1cc(F)cc(F)c1 | µM | 51
Nc1nc2c(ncn2COC(CO)CO)c(=O)[nH]1 [Ganciclovir, reference compound] | µM | 132

Now examine the next entry.
The measured CC50 associated with Nc1ccn(C[C@@H](CO)OCP(=O)(O)O)c(=O)n1.O.O [Cidofovir, reference compound] reads 63

###

# assay target: HIV-1 RT K103N/Y181C (Human immunodeficiency virus type 1 group M subtype B, UniProt P04585, K690N/Y768C)
# test name: biochemical
assay readout: Ki

Please review the entries below; each comes with its answer.
smiles data | Ki
Cc1ccc(OCCn2ccc(=O)n(Cc3cc(C)cc(C)c3)c2=O)cc1 | > 26 µM
O=c1ccn(C/C=C/c2ccccc2)c(=O)n1Cc1cc(Br)cc(Br)c1 | > 100 µM
O=c1ccn(C/C=C/c2ccccc2)c(=O)n1Cc1cc(Cl)cc(Cl)c1 | > 100 µM

Please look at the following compound next.
// sample `Cc1cc(C)cc(Cn2c(=O)ccn(C/C=C/c3ccccc3)c2=O)c1` , its Ki was > 100 µM
